testedSystem: CAMK1D (human)
protocolSummary: radiometric filter-binding kinase assay, Kinase HotSpot
conditionParameters: compound 0.5 µM; ATP 10 µM
List of residual activity values.
# number only, unit % dropped from output

These recorded examples may help you get a feel for the data.
> print(dat)
                    compoundstructurestring  experimentalreadout  datavalue
1  O=S(=O)(NCCNC/C=C/c1ccc(Br)cc1)c1cccc2cnccc12    residual activity       85.5
2       CCOc1cc2ncnc(Nc3cccc(Br)c3)c2cc1OCC    residual activity        102
3  N/C(=N\N=C/c1ccc(-c2cccc([N+](=O)[O-])c2)o1)N[N+](=O)[O-]    residual activity       96.4

Kindly note the recorded residual activity for Cn1cc(/C=C2\C(=O)Nc3ccc(S(N)(=O)=O)cc32)c2ccccc21 , which is 69.6
